Give measured melting point for each item. Keep answers brief.

Query :: Can you look up the measured melting point of OC1(Cn2cncn2)C(Cc2ccc(F)cc2)CCC12CC2 (single isomer, unassigned) [Compound I-8] for me?
Result :: 139 to 140 °C

Query :: Record request: melting point value, item OC1(Cn2cncn2)C(Cc2ccc(Cl)cc2)CCC12CC2 (single isomer, unassigned) [Compound I-1]
Result :: 85.5 to 87 °C

Query :: What does the record list as melting point for OC1(Cn2cncn2)C(Cc2cccc(Cl)c2)CCC12CC2 (single isomer, unassigned) [Compound I-4] ?
Result :: 120 to 121 °C

Query :: If you can, please state the reported melting point value of OC1(Cn2cncn2)C(Cc2ccc(Cl)cc2)CCC12CC2 (single isomer, unassigned) [Compound I-2] .
Result :: 166 to 167 °C

Query :: Which value of melting point has been reported for OC1(Cn2cncn2)C(Cc2ccc(F)cc2)CCC12CC2 (single isomer, unassigned) [Compound I-7] in the records?
Result :: 89 to 90 °C

Query :: Would you mind telling me what melting point value was observed for OC1(Cn2cncn2)C(Cc2cccc(Cl)c2)CCC12CC2 (single isomer, unassigned) [Compound I-3] ?
Result :: 84.5 to 85.5 °C

* * *

tested on: barley stripe microorganism (Pyrenophora graminea); assay: Antimicroorganism effect, mycelial extension on PDA plate; format: cell-based; conditions: PDA plate medium, 50 mg/l, 1 to 3 days, read-out: growth inhibition grade
Observation Type: inhibition at 50 µg/mL

Query :: Which measured inhibition at 50 µg/mL value corresponds to OC1(Cn2cncn2)C(Cc2cccc(Cl)c2)CCC12CC2 (single isomer, unassigned) ?
Result :: > 90%

Query :: Given OC1(Cn2cncn2)C(Cc2ccc(Cl)cc2)CCC12CC2 (single isomer, unassigned) , state its recorded inhibition at 50 µg/mL.
Result :: > 90%

Query :: Any idea what inhibition at 50 µg/mL was measured for OC1(Cn2cncn2)C(Cc2ccc(F)cc2)CCC12CC2 (single isomer, unassigned) ?
Result :: > 90%

Query :: Form field: reported inhibition at 50 µg/mL of CC1(C)CC12CCC(Cc1ccc(Cl)cc1)C2(O)Cn1cncn1 (stereo not shown)
Result :: > 90%
